Test Method Notes: Cmax in Wistar rat at 10 mg/kg, po
Format: ADME, organism-based
Design: dose 10 mg/kg, route oral
Settings: in vivo
Recorded Endpoint: Cmax (ng/mL)
Unit ng/mL implied. Number only.

Cc1cc(/C=C/C#N)cc(Cl)c1Nc1ccnc(Nc2ccc(C#N)cc2)n1 : 182
Cc1cc(/C=C/C#N)cc(C)c1Nc1ccnc(Nc2ccc(C#N)cc2)n1 : 1940

Task: Query (molecule): "COc1cc(/C=C/C#N)cc(Cl)c1Nc1ccnc(Nc2ccc(C#N)cc2)n1" ; field requested: Cmax
Output: 199

---

Test Method Notes: AUC in Wistar rat at 10 mg/kg, po
Format: ADME, organism-based
Set-up: dose 10 mg/kg, route oral
Settings: plasma
Recorded Endpoint: AUC
Could you kindly put the unit after your number?

Completed entries (count: 2):
Cc1cc(/C=C/C#N)cc(Cl)c1Nc1ccnc(Nc2ccc(C#N)cc2)n1 : 0.91 µg·h/mL
COc1cc(/C=C/C#N)cc(Cl)c1Nc1ccnc(Nc2ccc(C#N)cc2)n1 : 0.41 µg·h/mL

Here's the next entry for you.
Task: Form field: reported AUC of "Cc1cc(/C=C/C#N)cc(C)c1Nc1ccnc(Nc2ccc(C#N)cc2)n1"
Output: 9.65 µg·h/mL
